- TESTED_ON: Human Cav 2.2 channels (Homo sapiens)
- ASSAY_NAME: Fluorescent assay for CaV2.2 channels using potassium depolarization (VIPR/FLIPR)
- Assay type: cell-based
- CONDITION_INFO: FLIPR data; closed state; read-out: CAv2.2 IC50 Closed
pIC50: −log10 of the molar value.

# COMPOUND, pIC50
rows = [
    ("CC(C)([C@H]1C[C@@H](NS(=O)(=O)c2ccc(Cl)c(F)c2)C1)S(=O)(=O)c1cc(F)cc(C(F)(F)F)c1 [Compound 600]", 5.28),
    ("CC(C)([C@H]1C[C@@H](NS(=O)(=O)c2ccc(OC(F)(F)F)cc2)C1)S(=O)(=O)c1cc(F)cc(C(F)(F)F)c1 [Compound 603]", 5.38),
    ("CC(C)(C[C@H]1C[C@H](NC(=O)CC2(N)CCCCC2)C1)S(=O)(=O)c1cccc(C(F)(F)F)c1 [Compound 726]", 5.56),
    ("CC(C)(C[C@H]1C[C@@H](NC(=O)c2ccc(Cl)cc2S(C)(=O)=O)C1)S(=O)(=O)c1cccc(C(F)(F)F)c1 [Compound 731]", 5.27),
]

====

- TESTED_ON: N-type calcium channel subunits (α1B, α2δ, and β3a) (Homo sapiens)
- Sequence (Q00975 whole entry): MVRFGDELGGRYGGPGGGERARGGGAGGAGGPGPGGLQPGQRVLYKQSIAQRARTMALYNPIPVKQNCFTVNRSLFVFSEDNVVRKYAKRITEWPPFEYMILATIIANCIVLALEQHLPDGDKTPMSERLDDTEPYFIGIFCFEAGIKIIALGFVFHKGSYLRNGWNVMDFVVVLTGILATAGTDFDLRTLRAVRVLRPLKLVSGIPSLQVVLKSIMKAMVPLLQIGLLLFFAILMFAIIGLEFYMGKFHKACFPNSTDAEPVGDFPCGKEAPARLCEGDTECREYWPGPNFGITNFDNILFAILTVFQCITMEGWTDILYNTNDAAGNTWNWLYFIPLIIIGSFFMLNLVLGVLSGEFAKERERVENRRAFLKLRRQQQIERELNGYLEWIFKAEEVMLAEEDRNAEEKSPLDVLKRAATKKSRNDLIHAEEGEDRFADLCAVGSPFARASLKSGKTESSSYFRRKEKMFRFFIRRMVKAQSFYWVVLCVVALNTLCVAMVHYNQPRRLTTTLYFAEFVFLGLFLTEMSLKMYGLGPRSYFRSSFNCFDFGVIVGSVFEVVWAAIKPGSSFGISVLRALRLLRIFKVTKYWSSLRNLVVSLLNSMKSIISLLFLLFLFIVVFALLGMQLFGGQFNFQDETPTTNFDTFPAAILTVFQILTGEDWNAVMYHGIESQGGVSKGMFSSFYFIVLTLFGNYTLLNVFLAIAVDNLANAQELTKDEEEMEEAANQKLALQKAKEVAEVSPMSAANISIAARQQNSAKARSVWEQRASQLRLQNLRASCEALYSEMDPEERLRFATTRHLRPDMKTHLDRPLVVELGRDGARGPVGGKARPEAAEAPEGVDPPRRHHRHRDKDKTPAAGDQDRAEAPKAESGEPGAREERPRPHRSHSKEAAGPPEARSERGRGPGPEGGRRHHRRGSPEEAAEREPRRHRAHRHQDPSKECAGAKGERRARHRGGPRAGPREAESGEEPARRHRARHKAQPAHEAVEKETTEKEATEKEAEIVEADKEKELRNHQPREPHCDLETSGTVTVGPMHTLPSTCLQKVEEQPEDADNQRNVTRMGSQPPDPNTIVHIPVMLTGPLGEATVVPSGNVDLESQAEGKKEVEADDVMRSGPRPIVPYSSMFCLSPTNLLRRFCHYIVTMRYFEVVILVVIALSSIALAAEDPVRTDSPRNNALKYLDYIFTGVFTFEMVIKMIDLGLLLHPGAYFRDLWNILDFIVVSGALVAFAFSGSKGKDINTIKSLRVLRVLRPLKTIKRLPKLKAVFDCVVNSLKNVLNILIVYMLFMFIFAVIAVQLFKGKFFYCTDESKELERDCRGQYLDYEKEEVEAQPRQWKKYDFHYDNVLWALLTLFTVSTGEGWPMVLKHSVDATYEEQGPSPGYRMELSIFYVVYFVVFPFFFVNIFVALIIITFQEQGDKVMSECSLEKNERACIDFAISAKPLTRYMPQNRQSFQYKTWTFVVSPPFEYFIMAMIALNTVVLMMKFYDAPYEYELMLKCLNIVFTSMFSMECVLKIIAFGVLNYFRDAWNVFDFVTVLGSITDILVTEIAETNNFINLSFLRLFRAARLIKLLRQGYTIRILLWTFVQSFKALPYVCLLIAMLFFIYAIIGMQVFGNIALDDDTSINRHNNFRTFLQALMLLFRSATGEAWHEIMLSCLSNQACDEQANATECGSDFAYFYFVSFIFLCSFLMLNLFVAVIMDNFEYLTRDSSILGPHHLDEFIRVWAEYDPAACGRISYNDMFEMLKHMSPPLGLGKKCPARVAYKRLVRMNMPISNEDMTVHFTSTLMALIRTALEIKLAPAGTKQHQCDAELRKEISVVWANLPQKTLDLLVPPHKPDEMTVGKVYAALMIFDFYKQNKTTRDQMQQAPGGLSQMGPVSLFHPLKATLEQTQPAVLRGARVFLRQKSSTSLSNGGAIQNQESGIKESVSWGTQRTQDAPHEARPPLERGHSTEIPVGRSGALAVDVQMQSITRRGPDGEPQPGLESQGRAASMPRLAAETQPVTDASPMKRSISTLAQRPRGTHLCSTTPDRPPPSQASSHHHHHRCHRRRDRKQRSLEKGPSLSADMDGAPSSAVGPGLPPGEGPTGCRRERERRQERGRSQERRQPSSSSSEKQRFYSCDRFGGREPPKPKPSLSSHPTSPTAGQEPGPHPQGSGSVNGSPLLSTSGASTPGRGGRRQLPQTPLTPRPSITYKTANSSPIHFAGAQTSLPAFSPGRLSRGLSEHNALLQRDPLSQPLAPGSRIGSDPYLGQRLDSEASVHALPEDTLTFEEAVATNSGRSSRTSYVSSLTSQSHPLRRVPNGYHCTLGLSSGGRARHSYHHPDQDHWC
- Sequence (P54289 25-1103 partner): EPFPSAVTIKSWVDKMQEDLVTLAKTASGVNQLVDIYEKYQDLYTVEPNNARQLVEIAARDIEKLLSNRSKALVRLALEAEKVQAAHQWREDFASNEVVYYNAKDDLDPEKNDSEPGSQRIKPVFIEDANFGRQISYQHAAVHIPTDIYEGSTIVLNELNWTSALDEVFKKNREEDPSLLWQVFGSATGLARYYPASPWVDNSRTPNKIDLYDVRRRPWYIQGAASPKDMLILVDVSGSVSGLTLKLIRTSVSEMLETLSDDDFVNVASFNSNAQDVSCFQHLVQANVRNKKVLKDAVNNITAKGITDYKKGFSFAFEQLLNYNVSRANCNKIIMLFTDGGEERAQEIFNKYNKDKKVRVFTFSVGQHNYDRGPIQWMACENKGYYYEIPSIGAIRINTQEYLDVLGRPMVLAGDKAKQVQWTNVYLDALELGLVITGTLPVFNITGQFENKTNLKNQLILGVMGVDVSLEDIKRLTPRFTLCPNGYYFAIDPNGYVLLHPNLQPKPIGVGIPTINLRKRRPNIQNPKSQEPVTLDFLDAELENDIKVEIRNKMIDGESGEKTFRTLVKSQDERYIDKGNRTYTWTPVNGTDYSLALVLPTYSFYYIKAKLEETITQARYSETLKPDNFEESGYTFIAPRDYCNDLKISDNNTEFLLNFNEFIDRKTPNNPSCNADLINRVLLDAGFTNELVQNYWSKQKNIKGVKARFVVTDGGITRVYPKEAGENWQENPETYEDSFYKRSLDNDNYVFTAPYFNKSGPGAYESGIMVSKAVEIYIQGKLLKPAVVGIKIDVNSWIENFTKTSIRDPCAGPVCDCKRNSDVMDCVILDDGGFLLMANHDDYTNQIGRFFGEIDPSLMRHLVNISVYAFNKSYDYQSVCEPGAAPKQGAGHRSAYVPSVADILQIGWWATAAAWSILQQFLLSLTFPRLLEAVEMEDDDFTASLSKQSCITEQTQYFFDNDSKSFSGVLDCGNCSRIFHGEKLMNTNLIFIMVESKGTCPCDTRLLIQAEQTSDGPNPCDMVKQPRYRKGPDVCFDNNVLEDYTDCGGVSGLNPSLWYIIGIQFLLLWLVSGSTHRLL
- Sequence (P54284 whole entry partner): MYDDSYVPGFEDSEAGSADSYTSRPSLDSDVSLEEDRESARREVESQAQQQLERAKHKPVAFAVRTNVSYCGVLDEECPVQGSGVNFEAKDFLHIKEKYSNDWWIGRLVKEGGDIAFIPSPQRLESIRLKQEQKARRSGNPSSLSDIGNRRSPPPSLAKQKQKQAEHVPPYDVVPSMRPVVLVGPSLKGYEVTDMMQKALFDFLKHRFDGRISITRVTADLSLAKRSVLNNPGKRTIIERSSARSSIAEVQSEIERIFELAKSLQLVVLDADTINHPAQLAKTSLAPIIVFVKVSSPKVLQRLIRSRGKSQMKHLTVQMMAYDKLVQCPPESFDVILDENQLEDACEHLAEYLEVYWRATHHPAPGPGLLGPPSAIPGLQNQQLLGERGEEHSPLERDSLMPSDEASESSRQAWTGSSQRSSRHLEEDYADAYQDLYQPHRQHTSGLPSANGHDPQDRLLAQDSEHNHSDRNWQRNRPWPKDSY
- ASSAY_NAME: Block of Cav2.2 channel, whole cell voltage clamp, manual and PatchXpress
- Assay type: cell-based
- CONDITION_INFO: Table 5; table follows Assay Example 3 (whole cell voltage clamp / PatchXpress); assay not given
Bucketed by reported IC50, buckets being low band: < 500 nM; middle band: ≥ 500 nM and < 1000 nM; high band: ≥ 1000 nM

# COMPOUND, CLASSIFICATION
data = [
    ("O=C(CNC[C@H]1CC[C@@H](S(=O)(=O)c2cccc(C(F)(F)F)c2)CC1)NC1CCCCC1", "middle band"),
    ("Cn1nc(C(F)(F)F)cc1C(=O)NC1CCC(C)(S(=O)(=O)c2cccc(C(F)(F)F)c2)CC1 (stereo not shown)", "low band"),
    ("O=C(NC[C@]1(O)CC[C@@H](S(=O)(=O)c2cccc(C(F)(F)F)c2)CC1)c1ccc(C(F)(F)F)cn1", "high band"),
    ("O=C(NC[C@H]1C[C@H](S(=O)(=O)c2cc(F)cc(C(F)(F)F)c2)C1)c1ccc(Cl)c(Cl)c1", "middle band"),
    ("CC([C@H]1C[C@H](NC(=O)c2ccc(F)c(Cl)c2)C1)S(=O)(=O)c1cccc(C(F)(F)F)c1 (stereo partly shown)", "low band"),
    ("O=C(N[C@H]1CC[C@H](CS(=O)(=O)c2cccc(C(F)(F)F)c2)CC1)c1ccc(F)c(C(F)(F)F)c1", "high band"),
    ("O=C(N[C@H]1CC[C@H](CS(=O)(=O)c2cccc(C(F)(F)F)c2)CC1)c1nsc(Cl)c1Cl", "high band"),
    ("CC(C)(C)OC(=O)N[C@H]1CC[C@@H](S(=O)(=O)c2cccc(C(F)(F)F)c2)CC1", "low band"),
    ("O=C(N[C@H]1C[C@H](CS(=O)(=O)c2cccc(C(F)(F)F)c2)C1)c1ccc(Cl)c(F)c1", "high band"),
    ("CC(C)S(=O)(=O)c1cc(C(F)(F)F)cnc1C(=O)N[C@H]1C[C@H](S(=O)(=O)c2cccc(C(F)(F)F)c2)C1", "middle band"),
    ("O=C(N[C@H]1CC[C@@](F)(S(=O)(=O)c2cccc(C(F)(F)F)c2)CC1)c1ccc(OCC(F)(F)F)nc1", "low band"),
    ("CC(C)(C)OC(=O)N[C@H]1CC[C@H](S(=O)(=O)c2cccc(C(F)(F)F)c2)CC1", "high band"),
    ("O=C(N[C@H]1CC[C@H](S(=O)(=O)c2cccc(C(F)(F)F)c2)CC1)c1ccc(Cl)c(C(F)(F)F)c1", "middle band"),
    ("CN(C(=O)c1ncc(C(F)(F)F)cc1S(C)(=O)=O)[C@H]1CC[C@@](F)(S(=O)(=O)c2cc(F)cc(C(F)(F)F)c2)CC1", "middle band"),
    ("Cn1nc(C(F)(F)F)cc1C(=O)NC1(C)CCC(S(=O)(=O)c2cccc(C(F)(F)F)c2)CC1 (stereo not shown)", "high band"),
    ("CC1(CNC(=O)c2cc(F)cc(Cl)c2)CCC(F)(S(=O)(=O)c2cccc(C(F)(F)F)c2)CC1 (stereo not shown)", "low band"),
    ("O=C(N[C@H]1CC[C@H](CS(=O)(=O)c2cccc(C(F)(F)F)c2)CC1)c1cc(F)cc(C(F)(F)F)c1", "high band"),
    ("O=S(=O)(N[C@H]1CC[C@@](F)(S(=O)(=O)c2cccc(C(F)(F)F)c2)CC1)c1ccc(C(F)(F)F)cc1", "middle band"),
    ("O=C(Nc1cccc(C(F)(F)F)n1)[C@H]1C[C@@H](S(=O)(=O)c2cccc(C(F)(F)F)c2)C1", "middle band"),
    ("CC1(NC(=O)c2cc(C(F)(F)F)ccn2)CCC(S(=O)(=O)c2cccc(C(F)(F)F)c2)CC1 (stereo not shown)", "high band"),
    ("O=C(N[C@H]1CC[C@H](S(=O)(=O)c2cccc(C(F)(F)F)c2)CC1)c1ccnn1CC(F)(F)F", "high band"),
    ("O=C1c2cc(C(F)(F)F)nn2CCN1[C@H]1CC[C@@](F)(S(=O)(=O)c2cc(F)cc(C(F)(F)F)c2)CC1", "low band"),
    ("O=C(NC[C@H]1C[C@H](S(=O)(=O)c2cccc(C(F)(F)F)c2)C1)c1ccc(OC(F)(F)F)cc1", "low band"),
    ("O=C(NC[C@H]1C[C@H](S(=O)(=O)c2cccc(C(F)(F)F)c2)C1)c1cc(C(F)(F)F)ccn1", "low band"),
    ("O=C(NC[C@]1(O)CC[C@@H](S(=O)(=O)c2cccc(C(F)(F)F)c2)CC1)c1ccc(C(F)(F)F)nc1", "high band"),
    ("CC([C@H]1C[C@H](NC(=O)c2ncc(C(F)(F)F)cc2S(C)(=O)=O)C1)S(=O)(=O)c1cccc(C(F)(F)F)c1 (stereo partly shown)", "high band"),
    ("Cn1nc(C(F)(F)F)cc1C(=O)NC[C@H]1C[C@H](S(=O)(=O)c2cccc(C(F)(F)F)c2)C1", "low band"),
]
